- experimental.system: Tyrosine-protein kinase Mer (Homo sapiens);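 further: values are mean inhibition of human MER kinase, from the GSK PKIS profiling panel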
- test.conditions: at 1 µM
Where inhibition equals or exceeds 4%, the correct label is True; where it does not, the label is False.

Worked set:
cpd.smiles | label.value
CS(=O)(=O)CCNCc1ccc(-c2ccc3ncnc(Nc4ccc(OCc5ccccc5)c(Br)c4)c3c2)o1 | True
C#Cc1cccc(Nc2ncnc3ccc(OCCCCNCCS(C)(=O)=O)cc23)c1 | True
CCS(=O)(=O)c1ccc(OC)c(Nc2ncc(-c3cccc(-c4ccccc4F)c3)o2)c1 | False

**Q:** I'd appreciate it if you could say whether CCc1ccc(Oc2nccc(-c3c(-c4ccc(F)cc4)ncn3C3CCNCC3)n2)cc1 has inhibition at least equal to 4%.
**A:** False

---

- experimental.system: Receptor tyrosine-protein kinase erbB-4 (Homo sapiens);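 further: each value is a mean percent inhibition of ERBB4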
- test.conditions: at 1 µM
recorded.endpoint: inhibition (%)
Numbers only, in %.

These recorded examples may help you get a feel for the data.
compound | inhibition, %
Clc1ccc(CNc2nccc(-c3cnn4ncccc34)n2)cc1 | 1.08
CCN(CC)Cc1ccc(Nc2nccc(-c3cnn4ncccc34)n2)cc1 | 5.17
O=C1NC(=O)C(c2cccc(Cl)c2)=C1Nc1ccc(Cl)c(C(=O)O)c1 | 10

Quick one: give me inhibition for each item below, same order please.
1. Fc1ccc(-c2nc3n(c2-c2ccncc2)CCS3)cc1
2. N#Cc1ccc(Oc2nccc(-c3c(-c4ccc(F)cc4)ncn3C3CCNCC3)n2)cc1
3. Fc1ccc(-c2ncn(C3CCNCC3)c2-c2ccnc(Oc3ccc(F)c(F)c3)n2)cc1
4. C#Cc1cccc(Nc2ncnc3ccc(OCCCCNCCS(C)(=O)=O)cc23)c1
5. COc1cc(Nc2ncc3c(C)nc(-c4cccc(C(F)(F)F)c4)n3n2)cc(OC)c1OC
6. C[C@@H](Oc1cc(-n2cnc3ccc(OCC4CCN(C)CC4)cc32)sc1C(N)=O)c1ccccc1Cl

**A:**
[10, 11.9, 5.03, 63.8, 8.32, 13.1]

Quick one: give me inhibition for each item below, same order please.
1. O=C(Nc1n[nH]c2nc(-c3ccco3)ccc12)C1CC1
2. CCC(=O)Nc1ccc(C)c(-c2ccc(C(=O)NCC3CC3)cc2)c1

**A:**
2
13.9

Quick one: give me inhibition for each item below, same order please.
1. Fc1ccc(-c2c(-c3ccncc3)nc3n2CCS3)cc1
2. Nc1nccc(-c2c(-c3ccc(F)cc3)ncn2C2CCC(O)CC2)n1 (configuration not stated)
3. COc1cc(Nc2ncc(-c3ccccc3)o2)cc(OC)c1OC
4. Fc1ccc(-c2ncn(CCCN3CCOCC3)c2-c2ccncc2)cc1

**A:**
4.97
45.9
-2.66
4.14

---

- experimental.system: Ribosomal protein S6 kinase beta-1 (Homo sapiens) (UniProt P23443);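 further: values are mean inhibition of p70S6K1, measured as part of the GSK PKIS panel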
- Sequence (P23443 whole entry, looked up): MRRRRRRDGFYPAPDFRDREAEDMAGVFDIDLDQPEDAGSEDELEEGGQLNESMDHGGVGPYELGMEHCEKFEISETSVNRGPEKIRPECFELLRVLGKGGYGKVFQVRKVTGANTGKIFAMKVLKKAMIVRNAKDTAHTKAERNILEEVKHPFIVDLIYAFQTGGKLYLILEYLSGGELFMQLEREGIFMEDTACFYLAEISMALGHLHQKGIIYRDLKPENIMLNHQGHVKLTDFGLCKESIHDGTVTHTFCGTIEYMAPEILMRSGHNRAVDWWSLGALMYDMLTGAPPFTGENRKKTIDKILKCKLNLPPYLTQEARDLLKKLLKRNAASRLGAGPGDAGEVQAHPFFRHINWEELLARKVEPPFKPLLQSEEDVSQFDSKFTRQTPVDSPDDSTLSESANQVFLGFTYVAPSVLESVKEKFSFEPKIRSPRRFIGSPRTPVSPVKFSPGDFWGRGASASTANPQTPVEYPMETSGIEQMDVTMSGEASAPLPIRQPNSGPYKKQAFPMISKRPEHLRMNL
- test.conditions: at 1 µM
Would you mind telling me the reported inhibition of each entry?
Numbers only, in %.

These recorded examples may help you get a feel for the data.
cpd.smiles | recorded.endpoint | value
Fc1ccc(-c2c(-c3ccncc3)nc3n2CCS3)cc1 | inhibition | 2.52
CCS(=O)(=O)c1ccc(OC)c(Nc2ncc(-c3cccc(-c4ccccc4F)c3)o2)c1 | inhibition | 1.18
NC(=O)Cc1ccccc1Oc1nccc(-c2c(-c3ccc(F)cc3)ncn2C2CCNCC2)n1 | inhibition | 1.27
CCC(=O)Nc1ccc(C)c(-c2ccc(C(=O)NCC3CC3)cc2)c1 | inhibition | 1.77

**Q:** # query: inhibition of entry Cc1nnc(-c2ccc(C)c(-c3ccc(C(=O)NCc4ccc(Cl)cc4)cc3)c2)o1
**A:** 2.04

---

- experimental.system: Maternal embryonic leucine zipper kinase (Homo sapiens) (UniProt Q14680);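 further: each value is the mean inhibition of MELK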
- Sequence (Q14680 whole entry, looked up): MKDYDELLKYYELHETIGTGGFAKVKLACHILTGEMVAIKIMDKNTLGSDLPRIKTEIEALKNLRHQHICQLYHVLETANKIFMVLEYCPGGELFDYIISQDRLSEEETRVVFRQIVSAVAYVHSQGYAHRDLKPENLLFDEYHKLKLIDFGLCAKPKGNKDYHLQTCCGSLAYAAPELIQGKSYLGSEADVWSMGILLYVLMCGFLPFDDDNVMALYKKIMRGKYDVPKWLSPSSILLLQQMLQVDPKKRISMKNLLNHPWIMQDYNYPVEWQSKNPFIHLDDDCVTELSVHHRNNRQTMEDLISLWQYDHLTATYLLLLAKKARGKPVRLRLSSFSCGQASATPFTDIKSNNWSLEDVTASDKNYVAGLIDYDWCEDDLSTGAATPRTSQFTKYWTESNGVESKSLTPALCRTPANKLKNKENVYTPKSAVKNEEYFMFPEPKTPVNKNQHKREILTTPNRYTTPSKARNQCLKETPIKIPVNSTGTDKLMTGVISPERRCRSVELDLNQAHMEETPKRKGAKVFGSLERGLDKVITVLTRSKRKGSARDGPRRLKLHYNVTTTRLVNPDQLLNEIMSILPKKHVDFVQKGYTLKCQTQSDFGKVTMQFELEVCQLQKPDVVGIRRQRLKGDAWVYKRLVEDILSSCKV
- test.conditions: at 1 µM
Where inhibition equals or exceeds 10%, the correct label is TRUE; where it does not, the label is FALSE.

cpd.smiles | label.value
CCS(=O)(=O)c1ccc(OC)c(Nc2ncc(-c3ccccc3Cl)o2)c1 | FALSE
O=C1NC(=O)C(c2cccc(Cl)c2)=C1Nc1ccc(Cl)c(C(=O)O)c1 | FALSE
COc1cccc(/C=N/Nc2ncnc3c2cnn3-c2cccc(OC)c2)c1 | FALSE
NC(=O)Cc1ccccc1Oc1nccc(-c2c(-c3ccc(F)cc3)ncn2C2CCNCC2)n1 | FALSE
O=C(NCC1CC1)c1ccc(-c2cccc(C(=O)NC3CC3)c2)cc1 | FALSE

**Q:** I'd appreciate it if you could say whether C[C@@H](Oc1cc(-n2cnc3ccc(OC4CCN(C)CC4)cc32)sc1C(N)=O)c1ccccc1Cl has inhibition at least equal to 10%.
**A:** TRUE

**Q:** Follow-up item: Cc1ccc(C(=O)NC2CCC2)cc1-c1ccc(C(=O)NCC2CC2)cc1
**A:** FALSE

**Q:** Follow-up item: NC(=O)c1cc(-c2ccc(F)cc2)cc(-c2ccncc2)c1N
**A:** FALSE

**Q:** Follow-up item: CCN(CC)Cc1ccc(Nc2nccc(-c3cnn4ncccc34)n2)cc1
**A:** TRUE

**Q:** Follow-up item: CN(C)c1ccc2c(c1)/C(=C/Nc1ccc(S(N)(=O)=O)cc1)C(=O)N2
**A:** TRUE

---

- experimental.system: Dual specificity mitogen-activated protein kinase kinase 1 (Homo sapiens) (UniProt Q02750);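 further: reported value is a mean percent inhibition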
- Sequence (Q02750 whole entry): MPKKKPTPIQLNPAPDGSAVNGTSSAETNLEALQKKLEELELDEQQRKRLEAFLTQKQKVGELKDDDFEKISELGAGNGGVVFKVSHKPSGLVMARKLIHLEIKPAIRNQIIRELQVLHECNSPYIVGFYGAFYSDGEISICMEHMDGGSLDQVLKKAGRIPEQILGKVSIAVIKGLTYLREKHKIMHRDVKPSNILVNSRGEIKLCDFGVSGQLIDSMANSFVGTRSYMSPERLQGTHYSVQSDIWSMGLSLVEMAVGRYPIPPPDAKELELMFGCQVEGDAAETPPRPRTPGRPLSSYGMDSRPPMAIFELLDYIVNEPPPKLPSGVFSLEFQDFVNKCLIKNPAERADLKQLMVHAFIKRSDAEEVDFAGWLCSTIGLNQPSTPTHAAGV
- test.conditions: at 0.1 µM
Would you mind telling me the reported inhibition of each entry?
Numbers only, in %.

cpd.smiles | uom | inhibition
COc1cc(Nc2ncc(-c3ccccc3)o2)cc(OC)c1OC | % | -0.87
NC(=O)c1cc(-c2ccncc2)cc(-c2ccccc2)c1N | % | 6.3
COc1cc(N2CCN(C(C)C)CC2)ccc1Nc1nc(Nc2ccc(F)cc2C(=O)NC[C@@H](O)CO)c2cc[nH]c2n1 | % | 6.5

Quick one: give me inhibition for each item below, same order please.
1. CCc1ccc(Oc2nccc(-c3c(-c4ccc(F)cc4)ncn3C3CCNCC3)n2)cc1
2. O=C(Nc1n[nH]c2cc(-c3ccccc3)ccc12)C1CC1
3. CN(C)CCCNc1nccc(-c2c(-c3ccc(F)cc3)nn3cc(C(F)(F)F)ccc23)n1

**A:**
1: 3.92; 2: 4.67; 3: 1.86

**Q:** # query: inhibition of entry Cc1nnc(-c2ccc(C)c(-c3ccc(C(=O)NCc4ccc(Cl)cc4)cc3)c2)o1
**A:** 6.35

---

- experimental.system: Cyclin-dependent kinase 5 (Homo sapiens) (UniProt Q00535);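 further: enzyme tested as the CDK5/p35 complex, values are mean percent inhibition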
- Sequence (Q00535 whole entry, looked up): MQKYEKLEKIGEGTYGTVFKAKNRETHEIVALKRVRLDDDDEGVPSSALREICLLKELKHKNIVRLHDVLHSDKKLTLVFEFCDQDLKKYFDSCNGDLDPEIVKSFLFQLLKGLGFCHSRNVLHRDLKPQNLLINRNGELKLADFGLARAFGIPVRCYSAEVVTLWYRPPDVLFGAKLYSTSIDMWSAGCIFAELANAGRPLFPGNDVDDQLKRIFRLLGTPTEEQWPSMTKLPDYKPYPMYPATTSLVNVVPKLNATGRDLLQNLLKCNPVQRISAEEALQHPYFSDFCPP
- test.conditions: at 0.1 µM
recorded.endpoint: inhibition (%)
Numbers only, in %.

These recorded examples may help you get a feel for the data.
molecule | recorded.endpoint | value
NC(=O)c1cc(-c2ccncc2)cc(-c2ccccc2)c1N | inhibition | 0.58
FC(F)(F)c1cccc(Nc2nccc(-c3cnn4nc(-c5ccccc5)ccc34)n2)c1 | inhibition | 0.4
N#Cc1ccc(Oc2nccc(-c3c(-c4ccc(F)cc4)ncn3C3CCNCC3)n2)cc1 | inhibition | 0.41

Quick one: give me inhibition for each item below, same order please.
1. COc1cc(C)c(N(C)C(=O)CN(C)C)cc1Nc1nc(Nc2cccc(F)c2C(N)=O)c2cc[nH]c2n1
2. COc1ccc2cc(-c3c(-c4ccncc4)nc(-c4ccc([S+](C)[O-])cc4C)n3C)ccc2c1 (stereo not given)
3. O=C(Nc1n[nH]c2cc(-c3cc(F)ccc3F)ccc12)C1CC1
4. Fc1ccc(-c2ncn(C3CCNCC3)c2-c2ccnc(Oc3ccc(F)c(F)c3)n2)cc1
5. Fc1ccc(-c2ncn(CCCN3CCOCC3)c2-c2ccncc2)cc1
6. COc1ccc2ncn(-c3cc(O[C@H](C)c4ccccc4Cl)c(C(N)=O)s3)c2c1
7. CN(C)CCOc1ccc(-c2cc(-c3ccc4c(c3)CCC4=NO)c(-c3ccncc3)o2)cc1

**A:**
1. -3.87
2. 0.73
3. 0.68
4. 1.99
5. 1.43
6. -3.87
7. 0.66

Quick one: give me inhibition for each item below, same order please.
1. COc1cc2ncn(-c3cc(OCCc4ccccc4)c(C(N)=O)s3)c2cc1OC
2. Clc1ccc(CNc2nccc(-c3cnn4ncccc34)n2)cc1
3. C[C@@H](Oc1cc(-n2cnc3ccc(OC4CCN(C)CC4)cc32)sc1C(N)=O)c1ccccc1Cl
4. COc1cc2ncn(-c3cc(OCc4ccccc4C(F)(F)F)c(C(C)=O)s3)c2cc1OC

**A:**
0.7
7.08
-2.91
0.4

**Q:** # query: inhibition of entry c1ccc(-c2n[nH]cc2-c2ccnc(-c3ccc(OCCN4CCOCC4)cc3)c2)nc1
**A:** 5.7

---

- experimental.system: Ephrin type-A receptor 3 (Homo sapiens) (UniProt P29320);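 further: values are mean inhibition of EPHA3, from the GSK PKIS dataset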
- Sequence (P29320 whole entry): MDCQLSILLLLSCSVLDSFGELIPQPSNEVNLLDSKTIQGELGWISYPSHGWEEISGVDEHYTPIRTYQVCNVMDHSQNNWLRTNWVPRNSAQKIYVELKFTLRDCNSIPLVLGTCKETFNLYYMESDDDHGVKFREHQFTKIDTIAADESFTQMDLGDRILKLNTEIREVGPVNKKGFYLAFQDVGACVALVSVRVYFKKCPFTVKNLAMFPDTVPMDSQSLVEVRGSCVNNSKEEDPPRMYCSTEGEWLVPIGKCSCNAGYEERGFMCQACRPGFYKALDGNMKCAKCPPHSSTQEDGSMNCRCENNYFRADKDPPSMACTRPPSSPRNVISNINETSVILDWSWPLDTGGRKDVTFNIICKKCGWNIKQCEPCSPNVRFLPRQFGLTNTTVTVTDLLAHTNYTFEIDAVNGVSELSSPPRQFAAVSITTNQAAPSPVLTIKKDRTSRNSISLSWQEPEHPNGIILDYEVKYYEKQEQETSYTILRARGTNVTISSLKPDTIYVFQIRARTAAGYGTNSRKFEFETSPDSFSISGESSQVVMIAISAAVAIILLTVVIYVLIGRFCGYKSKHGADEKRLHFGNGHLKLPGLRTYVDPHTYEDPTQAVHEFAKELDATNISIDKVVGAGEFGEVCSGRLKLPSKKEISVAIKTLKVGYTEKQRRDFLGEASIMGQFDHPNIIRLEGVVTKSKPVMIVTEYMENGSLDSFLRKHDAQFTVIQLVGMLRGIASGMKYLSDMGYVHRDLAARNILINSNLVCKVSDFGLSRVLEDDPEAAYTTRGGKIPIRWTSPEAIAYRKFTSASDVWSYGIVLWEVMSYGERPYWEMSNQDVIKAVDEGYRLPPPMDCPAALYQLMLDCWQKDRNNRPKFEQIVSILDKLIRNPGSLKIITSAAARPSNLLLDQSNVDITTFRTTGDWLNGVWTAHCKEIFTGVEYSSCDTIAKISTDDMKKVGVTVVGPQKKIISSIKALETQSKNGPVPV
- test.conditions: at 0.1 µM
recorded.endpoint: inhibition (%)
Numbers only, in %.

These recorded examples may help you get a feel for the data.
cpd.smiles | uom | inhibition
COc1cc(Nc2ncc3c(C)nc(-c4cccc(Oc5ccccc5)c4)n3n2)cc(OC)c1OC | % | 3.2
CCS(=O)(=O)c1ccc(OC)c(Nc2ncc(-c3cccc(-c4ccccc4F)c3)o2)c1 | % | -1.38
C#Cc1cccc(Nc2ncnc3ccc(OCCCCNCCS(C)(=O)=O)cc23)c1 | % | 1.3
FC(F)(F)c1cccc(Nc2nccc(-c3cnn4nc(-c5ccccc5)ccc34)n2)c1 | % | 2.67
O=C1NC(=O)C(c2cccc(Cl)c2)=C1Nc1ccc(Cl)c(C(=O)O)c1 | % | 5.42

Quick one: give me inhibition for each item below, same order please.
1. Cc1nnc(-c2ccc(C)c(-c3ccc(C(=O)NCc4ccc(Cl)cc4)cc3)c2)o1
2. CS(=O)(=O)CCNCc1cc(-c2cc3c(Nc4ccc(OCc5cccc(F)c5)c(Cl)c4)ncnc3s2)cs1
3. Fc1ccc(-c2nc3n(c2-c2ccncc2)CCS3)cc1
4. CN1CCN(CCCNc2nc3ccc(Oc4ccc(NC(=O)Nc5cc(C(F)(F)F)ccc5F)cc4)cc3[nH]2)CC1

**A:**
-0.26
1.87
-0.22
-0.6
